Listed compounds paired with reported growth
System: SN12C renal
Experiment: NCI-60 one-dose screen, 48 h (100 = growth as untreated, 0 = no growth, -100 = all killed)
Details: 10 µM unless noted
This is part of a sample that, as a whole, favours compounds with a hit. Of some 83,000 tested, about 20% had one in any assay. Active and inactive are the calls of the source. How the source made its calls: active means growth percent below 10; inactive means the rest.

Known growth results, listed for orientation:
* COc1ccc2c(c1)C(=O)/C(=C/c1cccc(OCC(=O)c3ccccc3)c1)O2 | 32.9% (inactive)
* CCc1c(C)c2cc(-n3c(-c4ccc(OC)cc4)csc3=N)c(O)c(C)c2oc1=O | 10.2% (inactive)
* C#C[C@H](O)/C=C/CCCCCCC#C[C@H](O)CC[C@@H](O)C#CCCCCCC/C=C/[C@@H](O)C#C | 69.1% (inactive)
* CC(=O)N1N=C2N(Cc3ccccc3)C(=O)c3c(sc4c3CCCC4)N2C1c1cn(-c2ccccc2)nc1-c1ccc(Cl)cc1 (stereo not given) | 103% (inactive)
* CO[C@H]1/C=C/C=C/C=C/C[C@H](OC(=O)[C@@H](C)NC(=O)C2CCCCC2)[C@H](C)[C@@H](O)/C(C)=C\CCC2=CC(=O)C=C(NC(=O)C1)C2=O | -10% (active)

May I ask what growth has been recorded for `c1ccc2c(c1)Oc1cccnc1-n1nccc1-2` ?
101% (inactive)

// lookup growth for COc1cc(NC(C)CCCN2C(=O)c3ccccc3C2=O)c2ncccc2c1OC (stereo not given)
109% (inactive)

Bench note: what growth did `CS(=O)(=O)OCC(COS(C)(=O)=O)C(c1ccccc1)c1ccccc1` show?
89.2% (inactive)

So what's the measured growth for this one? `Nc1nc(Cl)cc(NCc2ccc(CNc3cc(Cl)nc(N)n3)cc2)n1`
106% (inactive)

Requested read-out: growth. Entry: `O=C(COc1ccc(Cl)cc1)N1CCN(Cc2ccc3c(c2)OCO3)CC1`
91% (inactive)

Look up growth for this compound: `O=C(Nc1ccccc1F)Nc1ccccc1Cl`
104% (inactive)

Which growth is listed for `CCOc1ccc(Cc2nccc3cc(OCC)c(OCC)cc23)cc1OCC` ?
58.9% (inactive)

Report growth for `CCN(CC)CCNC(=O)c1c(C)[nH]c(/C=C2\C(=O)Nc3cc(NC(=O)NC(=O)c4ccc(OC)cc4F)ccc32)c1C` please.
97.3% (inactive)

Quick check: growth of `O=C(O)c1ccc(-n2cc(/C=N/Nc3ccccc3F)c(-c3ccc(O)cc3)n2)cc1` ?
103% (inactive)

Return reported growth; argument: CC1(C)Cc2c(Br)c(Br)c(Br)c(OCC(O)CN3CCN(c4ccccn4)CC3)c2O1 (stereo not given)
106% (inactive)

###

Test system: SNB-75 CNS
Assay: NCI-60 one-dose screen, 48 h (100 = growth as untreated, 0 = no growth, -100 = all killed)
Conditions: 10 µM unless noted
The panel holds about 83,000 compounds, 20% with a hit somewhere; the sample as a whole holds those more often.
Please mark fulfilled if the recorded growth is equal to or greater than 90%, and not fulfilled if it falls below.

* O=C1OC(N(Cc2ccc(Cl)cc2)c2ccccc2)c2ccccc21 (stereo not given) | fulfilled
* COc1ccc(/C=C/C(=O)/C=C(/C=C/c2ccc(OC)c(OC)c2OC)OB(F)F)c(OC)c1OC | fulfilled

State whether the measured growth reaches 90%, counting equality as reaching it, for CCCCCCCCN(CCCCCCCC)CC(O)c1cc(-c2ccccc2)nc2ccc(OC)cc12 (stereo not given)
fulfilled

Hi team, for `O=C(Nc1ccc(-n2ccc3c(NC(=O)c4ccccc4)nccc32)cc1)c1cccc(C(F)(F)F)c1` , is the recorded growth at or above 90%?
not fulfilled

Exam item: decide whether the reported growth for `O=C(NC(=S)Nc1ccc(Cl)cc1)c1ccccc1` is at least 90%.
fulfilled
